tested.on: GRK5 (human) (UniProt P34947)
Sequence (P34947 whole entry, looked up): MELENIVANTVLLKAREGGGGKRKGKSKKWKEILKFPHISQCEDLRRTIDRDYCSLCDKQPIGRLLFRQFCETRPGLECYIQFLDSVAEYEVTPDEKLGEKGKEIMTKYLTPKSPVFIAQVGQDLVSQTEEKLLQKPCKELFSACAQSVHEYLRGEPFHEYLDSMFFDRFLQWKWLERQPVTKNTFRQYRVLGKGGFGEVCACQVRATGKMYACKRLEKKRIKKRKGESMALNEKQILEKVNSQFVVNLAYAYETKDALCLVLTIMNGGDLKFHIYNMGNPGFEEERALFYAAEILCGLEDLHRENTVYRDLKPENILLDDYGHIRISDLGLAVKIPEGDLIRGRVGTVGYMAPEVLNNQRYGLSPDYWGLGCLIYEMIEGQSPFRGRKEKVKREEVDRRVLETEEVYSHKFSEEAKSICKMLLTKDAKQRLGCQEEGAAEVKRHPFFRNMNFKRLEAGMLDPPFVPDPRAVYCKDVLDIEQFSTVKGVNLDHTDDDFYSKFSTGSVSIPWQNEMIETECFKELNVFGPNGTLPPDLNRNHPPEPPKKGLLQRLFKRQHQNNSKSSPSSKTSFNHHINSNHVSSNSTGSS
assay.name: radiometric filter-binding kinase assay, Kinase HotSpot
cond: compound 0.5 µM; ATP 10 µM
We begin with a simple list: items and their reported residual activity.

line.notation: CC(C)[C@H](CO)Nc1nc(Nc2cc(N)cc(Cl)c2)c2ncn(C(C)C)c2n1
measurement.units: %
residual activity: 101
//
line.notation: COc1ccc(OC)c2c(=S)c3ccccc3[nH]c12
measurement.units: %
residual activity: 108
//
line.notation: CC(C)c1nn(-c2c(Cl)cccc2Cl)c2nc(Cc3ccc(OCCO)cc3)nc(O)c12
measurement.units: %
residual activity: 108
//
line.notation: CN([C@@H](Cc1ccc(OS(=O)(=O)c2cccc3cnccc23)cc1)C(=O)N1CCN(c2ccccc2)CC1)S(=O)(=O)c1cccc2cnccc12
measurement.units: %
residual activity: 95.6
//
line.notation: O=C1NC(=O)C(c2cn(CCCO)c3ncccc23)=C1c1cnccn1
measurement.units: %
residual activity: 116
//
line.notation: Cn1nc2c3c(cccc31)C(=O)c1ccccc1-2
measurement.units: %
residual activity: 93.8
//
line.notation: Oc1ccc(Nc2nc(-c3ccc(Cl)cc3)cs2)cc1
measurement.units: %
residual activity: 92
//
line.notation: Cc1nc2cc3nc(-c4cccs4)cnc3cc2n1C
measurement.units: %
residual activity: 108
//
line.notation: O=C(Nc1cccc(Nc2cc(Nc3cccc(C(F)(F)F)c3)ncn2)c1)C1CC1
measurement.units: %
residual activity: 109
//
line.notation: Nc1nnc2[nH]c3ccccc3nc1-2
measurement.units: %
residual activity: 101
//
line.notation: O=C1Cc2c([nH]c3ccc(Br)cc23)-c2ccccc2N1
measurement.units: %
residual activity: 97
